Experiment: Oral bioavailability in rat at 1 mg/kg
Type: ADME, organism-based
Conditions: in vivo
Kindly state bioavailability for each of the entries shown.
Unit % implied. Number only.

**Query** Give the reported value of bioavailability for this record: CCNC(=O)c1cc2c(-c3cc(C(C)(C)O)ccc3Oc3c(C)cc(F)cc3C)cn(C)c(=O)c2[nH]1 [ABBV-744]
**Result** 24

**Query** Give the reported value of bioavailability for this record: `CCNC(=O)c1cc2c(-c3cc(S(=O)(=O)CC)ccc3Oc3c(C)cccc3C)cn(C)c(=O)c2[nH]1`
**Result** 7

----------
Assay: Clearance in monkey plasma at 0.1 mg/kg, iv
Assay type: ADME, organism-based, Macaca mulatta
Settings: rhesus monkey
Attribute measured: clearance (mL/min/kg)
Unit mL/min/kg implied. Number only.

**Query** Give the reported value of clearance for this record: `CCNC(=O)c1cc2c(-c3cc(S(=O)(=O)CC)ccc3Oc3c(C)cccc3C)cn(C)c(=O)c2[nH]1`
**Result** 20

----------
Test: Clearance in monkey plasma at 0.3 mg/kg, iv
Format: ADME, organism-based, Macaca mulatta
Settings: rhesus monkey
Attribute measured: clearance (L/h/kg)
Unit L/h/kg implied. Number only.

**Query** Give the reported value of clearance for this record: `CCNC(=O)c1cc2c(-c3cc(C(C)(C)O)ccc3Oc3c(C)cc(F)cc3C)cn(C)c(=O)c2[nH]1`
**Result** 1.54

----------
Assay: AUC in rat at 1 mg/kg, po
Assay type: ADME, organism-based
Details: in vivo
Attribute measured: AUC (ng·h/mL)
Unit ng·h/mL implied. Number only.

**Query** Give the reported value of AUC for this record: CCNC(=O)c1cc2c(-c3cc(C(C)(C)O)ccc3Oc3c(C)cc(F)cc3C)cn(C)c(=O)c2[nH]1 [ABBV-744]
**Result** 120

**Query** Give the reported value of AUC for this record: `CCNC(=O)c1cc2c(-c3cc(S(=O)(=O)CC)ccc3Oc3c(C)cccc3C)cn(C)c(=O)c2[nH]1`
**Result** 27

----------
Assay: Unbound hepatic clearance in mouse liver microsomes
Format: ADME, Microsome
Kindly state CL free for each of the entries shown.
Unit mL/min/kg implied. Number only.

**Query** Give the reported value of CL free for this record: `CCNC(=O)c1cc2c(-c3cc(S(=O)(=O)CC)ccc3Oc3c(C)cccc3Br)cn(C)c(=O)c2[nH]1`
**Result** 1880

**Query** Give the reported value of CL free for this record: `CCNC(=O)c1cc2c(-c3cc(S(=O)(=O)CC)ccc3-n3ccc4ccccc43)cn(C)c(=O)c2[nH]1`
**Result** 2170

**Query** Give the reported value of CL free for this record: `CCNC(=O)c1cc2c(-c3cc(C4(O)CCOCC4)ccc3Oc3c(C)cc(F)cc3C)cn(C)c(=O)c2[nH]1`
**Result** 1670

**Query** Give the reported value of CL free for this record: `CCNC(=O)c1cc2c(-c3cc(NS(=O)(=O)CC)ccc3Oc3c(C)cc(F)cc3C)cn(C)c(=O)c2[nH]1`
**Result** 2000

**Query** Give the reported value of CL free for this record: `CCNC(=O)c1cc2c(-c3cc(NC(C)=O)ccc3Oc3c(C)cc(F)cc3C)cn(C)c(=O)c2[nH]1`
**Result** 2330

**Query** Give the reported value of CL free for this record: `Cc1cc(F)cc(C)c1Oc1ccc(C(C)(C)O)cc1-c1cn(C)c(=O)c2[nH]c(C(=O)NC(C)(C)C(F)(F)F)cc12`
**Result** 46700

**Query** Give the reported value of CL free for this record: `CCNC(=O)c1cc2c(-c3cc(S(=O)(=O)CC)ccc3-c3ccccc3C)cn(C)c(=O)c2[nH]1`
**Result** 750

**Query** Give the reported value of CL free for this record: `CCNC(=O)c1cc2c(-c3cc(S(=O)(=O)CC)ccc3-c3cccc4cc[nH]c34)cn(C)c(=O)c2[nH]1`
**Result** 517

**Query** Give the reported value of CL free for this record: `CCNC(=O)c1cc2c(-c3cc(S(=O)(=O)CC)ccc3Oc3c(C)cccc3C(F)(F)F)cn(C)c(=O)c2[nH]1`
**Result** 900

**Query** Give the reported value of CL free for this record: `CCNC(=O)c1cc2c(-c3cc(NS(=O)(=O)CC)ccc3Oc3c(C)cccc3C)cn(C)c(=O)c2[nH]1`
**Result** 1320

**Query** Give the reported value of CL free for this record: Cc1cc(F)cc(C)c1Oc1ccc(C(C)(C)O)cc1-c1cn(C)c(=O)c2[nH]c(C(=O)NC3(C)CC3(F)F)cc12 (stereo unspecified)
**Result** 3500

**Query** Give the reported value of CL free for this record: `CCNC(=O)c1cc2c(-c3cc(C(C)(C)O)ccc3Oc3c(C)cc(F)cc3C)cn(C)c(=O)c2[nH]1`
**Result** 750

**Query** Give the reported value of CL free for this record: `CCNC(=O)c1ccc(Oc2c(C)cccc2C)c(-c2cn(C)c(=O)c3[nH]c(C(=O)NCC)cc23)c1`
**Result** 317

**Query** Give the reported value of CL free for this record: `CCNC(=O)c1cc2c(-c3cc(S(=O)(=O)CC)ccc3Oc3c(C)cc(Cl)cc3C)cn(C)c(=O)c2[nH]1`
**Result** 2000

**Query** Give the reported value of CL free for this record: `CCNC(=O)c1cc2c(-c3cc(C4(O)COC4)ccc3Oc3c(C)cc(F)cc3C)cn(C)c(=O)c2[nH]1`
**Result** 533

----------
Kindly state IC50 for each of the entries shown.
Test system: NCI-H1299
Assay: Antiproliferative activity against human H1299 cells assessed as reduction in cell viability after 5 days by CellTiter-Glo assay
Type: functional, cell-based
Settings: NCI-H1299, 120 h
Unit µM implied. Number only.

**Query** Identify measured IC50 obtained with NCI-H1299 for `CCNC(=O)c1cc2c(-c3cc(S(=O)(=O)CC)ccc3Oc3c(C)cc(Cl)cc3C)cn(C)c(=O)c2[nH]1` .
**Result** 0.7

**Query** Identify measured IC50 obtained with NCI-H1299 for `CCNC(=O)c1cc2c(-c3cc(S(C)(=O)=O)ccc3Oc3c(C)cccc3C)cn(C)c(=O)c2[nH]1` .
**Result** 0.79

**Query** Identify measured IC50 obtained with NCI-H1299 for `CCNC(=O)c1cc2c(-c3cc(NC(C)=O)ccc3Oc3c(C)cccc3C)cn(C)c(=O)c2[nH]1` .
**Result** 0.73

**Query** Identify measured IC50 obtained with NCI-H1299 for `CCNC(=O)c1ccc(Oc2c(C)cccc2C)c(-c2cn(C)c(=O)c3[nH]c(C(=O)NCC)cc23)c1` .
**Result** 1.5

**Query** Identify measured IC50 obtained with NCI-H1299 for `Cc1cc(F)cc(C)c1Oc1ccc(C(C)(C)O)cc1-c1cn(C)c(=O)c2[nH]c(C(=O)NC(C)(C)C)cc12` .
**Result** 1.5

**Query** Identify measured IC50 obtained with NCI-H1299 for `CCNC(=O)c1cc2c(-c3cc(C(C)(C)O)ccc3Oc3c(C)cc(F)cc3C)cn(C)c(=O)c2[nH]1` .
**Result** 1.6

**Query** Identify measured IC50 obtained with NCI-H1299 for `CCNC(=O)c1cc2c(-c3cc(S(C)(=O)=O)ccc3Nc3c(C)cccc3C)cn(C)c(=O)c2[nH]1` .
**Result** 3.6

**Query** Identify measured IC50 obtained with NCI-H1299 for `CCNC(=O)c1cc2c(-c3cc(S(=O)(=O)CC)ccc3Oc3c(C)cccc3Cl)cn(C)c(=O)c2[nH]1` .
**Result** 0.67

----------
Target: Bromodomain-containing protein 4 (Homo sapiens, UniProt O60885)
Test: Inhibition of human N-terminal His6 tagged BRD4 BD2 (352 to 457) residues expressed in Escherichia coli BL21(DE3) cells after 1 hr by TR-FRET assay
Attribute measured: pKi
Entry type: numeric. Quantity: pKi, the -log10 of concentration in molar units.

**Query** Give the reported value of pKi for this record: `CCNC(=O)c1cc2c(-c3cc(S(=O)(=O)CC)ccc3Oc3c(C)cccc3Cl)cn(C)c(=O)c2[nH]1`
**Result** 9.05

**Query** Give the reported value of pKi for this record: `CCNC(=O)c1cc2c(-c3cc(S(=O)(=O)CC)ccc3Oc3ccccc3C)cn(C)c(=O)c2[nH]1`
**Result** 9.10

**Query** Give the reported value of pKi for this record: `CCNC(=O)c1cc2c(-c3cc(S(=O)(=O)CC)ccc3-n3ccc4ccccc43)cn(C)c(=O)c2[nH]1`
**Result** 8.74

**Query** Give the reported value of pKi for this record: `CCNC(=O)c1cc2c(-c3cc(NS(=O)(=O)CC)ccc3Oc3c(C)cccc3C)cn(C)c(=O)c2[nH]1`
**Result** 9.10

**Query** Give the reported value of pKi for this record: `Cc1cc(F)cc(C)c1Oc1ccc(C(C)(C)O)cc1-c1cn(C)c(=O)c2[nH]c(C(=O)NC3CC3)cc12`
**Result** 9.30

**Query** Give the reported value of pKi for this record: `CCNC(=O)c1cc2c(-c3cc(S(=O)(=O)CC)ccc3-c3cccc4cc[nH]c34)cn(C)c(=O)c2[nH]1`
**Result** 9.05

**Query** Give the reported value of pKi for this record: `CCNC(=O)c1cc2c(-c3cc(NC(C)=O)ccc3Oc3c(C)cccc3C)cn(C)c(=O)c2[nH]1`
**Result** 9.30

**Query** Give the reported value of pKi for this record: `CCNC(=O)c1cc2c(-c3cc(S(=O)(=O)CC)ccc3Oc3ccc(F)cc3F)cn(C)c(=O)c2[nH]1`
**Result** 9.15
